Biological target: Adenosine receptor A2b (Homo sapiens, UniProt P29275)
Sequence (P29275 whole entry): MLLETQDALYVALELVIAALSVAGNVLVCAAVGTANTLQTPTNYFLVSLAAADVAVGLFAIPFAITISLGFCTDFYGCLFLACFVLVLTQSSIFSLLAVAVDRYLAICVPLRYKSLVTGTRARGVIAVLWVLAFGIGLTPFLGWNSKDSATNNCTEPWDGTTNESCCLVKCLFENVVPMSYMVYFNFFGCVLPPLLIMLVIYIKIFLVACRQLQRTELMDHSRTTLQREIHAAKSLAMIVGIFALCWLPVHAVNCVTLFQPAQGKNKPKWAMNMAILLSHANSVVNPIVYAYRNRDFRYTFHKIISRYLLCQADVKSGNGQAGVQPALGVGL
Assay: Displacement of [3H]DPCPX from human adenosine A2B receptor expressed in HEK cell membrane incubated for 30 mins by microplate beta scintillation counting based radioligand inhibition assay
MEASURE: pKi
Answers are plain numbers, as −log10 of the molar value.

Q) Report pKi for CCNC(=O)[C@H]1O[C@@H](n2cnc3c(NCCCCc4ccccc4)ncnc32)[C@H](O)[C@@H]1O
A) 5.48
